All values here come from patent US5739112A.

Tested target: Human factor XIa (Homo sapiens, UniProt P03951)
Sequence (P03951 388-625 limits assumed): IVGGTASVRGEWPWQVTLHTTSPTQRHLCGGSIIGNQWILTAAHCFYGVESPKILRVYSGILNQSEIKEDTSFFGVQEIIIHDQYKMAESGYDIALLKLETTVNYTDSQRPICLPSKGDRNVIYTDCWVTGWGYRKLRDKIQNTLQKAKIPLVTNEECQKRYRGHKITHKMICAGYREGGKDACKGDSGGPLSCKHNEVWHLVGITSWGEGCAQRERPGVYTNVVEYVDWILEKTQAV
Sequence (P03951 19-387 partner limits assumed): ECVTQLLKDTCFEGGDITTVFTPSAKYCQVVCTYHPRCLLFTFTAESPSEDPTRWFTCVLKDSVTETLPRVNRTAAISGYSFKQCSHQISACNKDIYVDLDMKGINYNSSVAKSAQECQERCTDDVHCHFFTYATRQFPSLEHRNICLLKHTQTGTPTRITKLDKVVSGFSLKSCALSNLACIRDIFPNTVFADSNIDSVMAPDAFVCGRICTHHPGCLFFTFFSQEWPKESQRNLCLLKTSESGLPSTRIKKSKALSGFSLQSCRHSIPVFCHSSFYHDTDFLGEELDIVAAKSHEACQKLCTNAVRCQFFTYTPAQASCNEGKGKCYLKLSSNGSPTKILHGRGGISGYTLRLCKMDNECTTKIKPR
pIC50: −log10 of the molar value. Numbered stars: 1 amine (or outer) side, 2 acyl side, 3 side chain; on linkers, the order of the positions; unused ones are H or OH. Square brackets hold non-standard residues; d marks the D form. Peptide text beside a SMILES is read from it. * marks the point of attachment. 1Nal = N[C@@H](Cc1cccc2ccccc12)C(=O)O; 2Nal = N[C@@H](Cc1ccc2ccccc2c1)C(=O)O; d2Nal = N[C@H](Cc1ccc2ccccc2c1)C(=O)O; Suc = O=C(CCC(=O)[*:2])[*:1]; Boc = CC(C)(C)OC(=O)*
Returns fulfilled if the recorded pIC50 is greater than or equal to 5, and not fulfilled otherwise.

Compound	Discrete label
CC(C)CCC(=O)N[C@H](Cc1ccccc1)C(=O)N[C@@H](Cc1cccc2ccccc12)C(=O)N[C@H](C=O)CCCNC(=N)N [[9]]	not fulfilled
CC(C)(C)OC(=O)NC(C(=O)N[C@@H](Cc1cccc2ccccc12)C(=O)N[C@H](C=O)CCCNC(=N)N)c1ccc(-c2ccccc2)cc1 (some centres unmarked) [[7]]	not fulfilled
CC(C)(C)OC(=O)N[C@H](Cc1ccc2ccccc2c1)C(=O)N[C@@H](Cc1ccccc1)C(=O)N[C@H](C=O)CCCNC(=N)N [[1]] (Boc-[d2Nal]-Phe-Arg-aldehyde)	not fulfilled
CC(C)(C)OC(=O)N[C@H](Cc1ccccc1)C(=O)N[C@@H](Cc1cccc2ccccc12)C(=O)N[C@H](C=O)CCCNC(=N)N [[5]] (Boc-[dF]-[1Nal]-Arg-aldehyde)	not fulfilled
CC(C)(C)OC(=O)N[C@H](Cc1ccccc1)C(=O)N[C@@H](Cc1ccccc1)C(=O)N[C@H](C=O)CCCNC(=N)N [[4]] (Boc-[dF]-Phe-Arg-aldehyde)	not fulfilled
CC(=O)N[C@H](Cc1ccccc1)C(=O)N[C@@H](Cc1cccc2ccccc12)C(=O)N[C@H](C=O)CCCNC(=N)N [[6]] (Ac-[dF]-[1Nal]-Arg-aldehyde)	fulfilled
N=C(N)NCCC[C@@H](C=O)NC(=O)[C@H](Cc1cccc2ccccc12)NC(=O)[C@@H](Cc1ccccc1)NC(=O)CCC(=O)O [[8]] (Suc-[dF]-[1Nal]-Arg-aldehyde)	not fulfilled
CC(C)(C)OC(=O)N[C@H](Cc1ccccc1)C(=O)N1CC[C@H](c2ccccc2)[C@H]1C(=O)N[C@H](C=O)CCCNC(=N)N (relative stereo) [[10]]	not fulfilled
CC(C)(C)OC(=O)N[C@H](Cc1ccccc1)C(=O)N1CCC[C@H]1C(=O)N[C@H](C=O)CCCNC(=N)N [[23], reference compound]	fulfilled
CC(C)(C)OC(=O)N[C@H](Cc1ccccc1)C(=O)N[C@@H](Cc1ccc2ccccc2c1)C(=O)N[C@H](C=O)CCCNC(=N)N [[3]] (Boc-[dF]-[2Nal]-Arg-aldehyde)	not fulfilled

---

Tested target: Human α-thrombin (Homo sapiens)
Construct: purchased Enzyme Research Laboratories, Inc
Test name: Thrombin assay (chromogenic substrate S-2238)
Format: biochemical
Cond: 100 times IC50 for factor Xa divided by IC50 for thrombin
Numbered stars: 1 amine (or outer) side, 2 acyl side, 3 side chain; on linkers, the order of the positions; unused ones are H or OH. Square brackets hold non-standard residues; d marks the D form. Peptide text beside a SMILES is read from it. * marks the point of attachment. 1Nal = N[C@@H](Cc1cccc2ccccc12)C(=O)O; 2Nal = N[C@@H](Cc1ccc2ccccc2c1)C(=O)O; d2Nal = N[C@H](Cc1ccc2ccccc2c1)C(=O)O; dPhg = N[C@@H](C(=O)O)c1ccccc1; Suc = O=C(CCC(=O)[*:2])[*:1]; Boc = CC(C)(C)OC(=O)*
Reported Percent Selectivity Thrombin values for the following compounds.

Compound	Tested target	Percent Selectivity Thrombin
CC(C)CCC(=O)N[C@H](Cc1ccccc1)C(=O)N[C@@H](Cc1cccc2ccccc12)C(=O)N[C@H](C=O)CCCNC(=N)N [[9]]	Human α-thrombin (Homo sapiens)	< 0.68
CC(=O)N[C@H](Cc1ccccc1)C(=O)N[C@@H](Cc1cccc2ccccc12)C(=O)N[C@H](C=O)CCCNC(=N)N [[6]] (Ac-[dF]-[1Nal]-Arg-aldehyde)	Human α-thrombin (Homo sapiens)	< 0.1
N=C(N)NCCC[C@@H](C=O)NC(=O)[C@H](Cc1cccc2ccccc12)NC(=O)[C@@H](Cc1ccccc1)NC(=O)CCC(=O)O [[8]] (Suc-[dF]-[1Nal]-Arg-aldehyde)	Human α-thrombin (Homo sapiens)	< 0.1
CC(C)(C)OC(=O)N[C@H](Cc1ccccc1)C(=O)N1CCC[C@H]1C(=O)N[C@H](C=O)CCCNC(=N)N [[23], reference compound]	Human α-thrombin (Homo sapiens)	22,800
CC(C)(C)OC(=O)N[C@H](Cc1ccccc1)C(=O)N[C@@H](Cc1ccc2ccccc2c1)C(=O)N[C@H](C=O)CCCNC(=N)N [[3]] (Boc-[dF]-[2Nal]-Arg-aldehyde)	Human α-thrombin (Homo sapiens)	3.6
CC(C)(C)OC(=O)NC(C(=O)N[C@@H](Cc1cccc2ccccc12)C(=O)N[C@H](C=O)CCCNC(=N)N)c1ccc(-c2ccccc2)cc1 (some centres unmarked) [[7]]	Human α-thrombin (Homo sapiens)	< 10
CC(C)(C)OC(=O)N[C@H](Cc1ccc2ccccc2c1)C(=O)N[C@@H](Cc1ccccc1)C(=O)N[C@H](C=O)CCCNC(=N)N [[1]] (Boc-[d2Nal]-Phe-Arg-aldehyde)	Human α-thrombin (Homo sapiens)	1.6
CC(C)(C)OC(=O)N[C@H](Cc1ccccc1)C(=O)N[C@@H](Cc1ccccc1)C(=O)N[C@H](C=O)CCCNC(=N)N [[4]] (Boc-[dF]-Phe-Arg-aldehyde)	Human α-thrombin (Homo sapiens)	< 0.8
CC(C)(C)OC(=O)N[C@H](Cc1ccccc1)C(=O)N[C@@H](Cc1cccc2ccccc12)C(=O)N[C@H](C=O)CCCNC(=N)N [[5]] (Boc-[dF]-[1Nal]-Arg-aldehyde)	Human α-thrombin (Homo sapiens)	0.2
CC(C)(C)OC(=O)N[C@H](Cc1ccccc1)C(=O)N1CC[C@H](c2ccccc2)[C@H]1C(=O)N[C@H](C=O)CCCNC(=N)N (relative stereo) [[10]]	Human α-thrombin (Homo sapiens)	< 2.5
CC(C)(C)OC(=O)N[C@@H](C(=O)N[C@@H](Cc1ccccc1)C(=O)N[C@H](C=O)CCCN=C(N)N)c1ccccc1 [[2]] (Boc-[dPhg]-Phe-Arg-aldehyde)	Human α-thrombin (Homo sapiens)	< 2.6

---

Tested target: Human α-thrombin (Homo sapiens, UniProt P00734)
pIC50: −log10 of the molar value. Numbered stars: 1 amine (or outer) side, 2 acyl side, 3 side chain; on linkers, the order of the positions; unused ones are H or OH. Square brackets hold non-standard residues; d marks the D form. Peptide text beside a SMILES is read from it. * marks the point of attachment. 1Nal = N[C@@H](Cc1cccc2ccccc12)C(=O)O; 2Nal = N[C@@H](Cc1ccc2ccccc2c1)C(=O)O; Suc = O=C(CCC(=O)[*:2])[*:1]; Boc = CC(C)(C)OC(=O)*
Measured pIC50 accompanies every entry in the list below.
Measurement label: pIC50

Molecule	Tested target	Measurement label	Result
CC(C)(C)OC(=O)N[C@H](Cc1ccccc1)C(=O)N[C@@H](Cc1ccc2ccccc2c1)C(=O)N[C@H](C=O)CCCNC(=N)N [[3]] (Boc-[dF]-[2Nal]-Arg-aldehyde)	Human α-thrombin (Homo sapiens, UniProt P00734)	pIC50	4.60
CC(=O)N[C@H](Cc1ccccc1)C(=O)N[C@@H](Cc1cccc2ccccc12)C(=O)N[C@H](C=O)CCCNC(=N)N [[6]] (Ac-[dF]-[1Nal]-Arg-aldehyde)	Human α-thrombin (Homo sapiens, UniProt P00734)	pIC50	< 4.60
N=C(N)NCCC[C@@H](C=O)NC(=O)[C@H](Cc1cccc2ccccc12)NC(=O)[C@@H](Cc1ccccc1)NC(=O)CCC(=O)O [[8]] (Suc-[dF]-[1Nal]-Arg-aldehyde)	Human α-thrombin (Homo sapiens, UniProt P00734)	pIC50	< 4.60

---

Tested target: Human recombinant t-PA (Activase) (Homo sapiens)
Construct: purchased Genentech, Inc. Activase
Sequence (P00750 36-562): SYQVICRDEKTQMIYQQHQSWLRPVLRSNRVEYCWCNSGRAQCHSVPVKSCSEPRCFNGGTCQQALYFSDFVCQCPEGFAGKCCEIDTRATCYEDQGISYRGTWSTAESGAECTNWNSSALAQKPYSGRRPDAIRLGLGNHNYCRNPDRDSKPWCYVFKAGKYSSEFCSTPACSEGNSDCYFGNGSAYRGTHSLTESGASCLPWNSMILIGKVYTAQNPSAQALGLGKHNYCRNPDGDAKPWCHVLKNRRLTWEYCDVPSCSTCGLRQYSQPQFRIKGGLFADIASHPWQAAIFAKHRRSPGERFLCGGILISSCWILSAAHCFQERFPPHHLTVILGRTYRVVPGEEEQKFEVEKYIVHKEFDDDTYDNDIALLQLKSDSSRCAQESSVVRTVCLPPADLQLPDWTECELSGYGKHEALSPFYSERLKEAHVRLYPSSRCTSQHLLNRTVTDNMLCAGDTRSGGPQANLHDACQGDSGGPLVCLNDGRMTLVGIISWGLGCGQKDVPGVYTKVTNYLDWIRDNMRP
Test name: tPA assay (substrate Pefachrome tPA)
Format: biochemical
Cond: 100 times IC50 for factor Xa divided by IC50 for tPA
Numbered stars: 1 amine (or outer) side, 2 acyl side, 3 side chain; on linkers, the order of the positions; unused ones are H or OH. Square brackets hold non-standard residues; d marks the D form. Peptide text beside a SMILES is read from it. * marks the point of attachment. 1Nal = N[C@@H](Cc1cccc2ccccc12)C(=O)O; 2Nal = N[C@@H](Cc1ccc2ccccc2c1)C(=O)O; d2Nal = N[C@H](Cc1ccc2ccccc2c1)C(=O)O; dPhg = N[C@@H](C(=O)O)c1ccccc1; Suc = O=C(CCC(=O)[*:2])[*:1]; Boc = CC(C)(C)OC(=O)*

Molecule	Percent Selectivity tPA
CC(C)(C)OC(=O)N[C@H](Cc1ccccc1)C(=O)N[C@@H](Cc1ccccc1)C(=O)N[C@H](C=O)CCCNC(=N)N [[4]] (Boc-[dF]-Phe-Arg-aldehyde)	< 0.8
CC(C)(C)OC(=O)N[C@H](Cc1ccccc1)C(=O)N[C@@H](Cc1cccc2ccccc12)C(=O)N[C@H](C=O)CCCNC(=N)N [[5]] (Boc-[dF]-[1Nal]-Arg-aldehyde)	< 0.1
CC(=O)N[C@H](Cc1ccccc1)C(=O)N[C@@H](Cc1cccc2ccccc12)C(=O)N[C@H](C=O)CCCNC(=N)N [[6]] (Ac-[dF]-[1Nal]-Arg-aldehyde)	< 0.1
CC(C)(C)OC(=O)NC(C(=O)N[C@@H](Cc1cccc2ccccc12)C(=O)N[C@H](C=O)CCCNC(=N)N)c1ccc(-c2ccccc2)cc1 (stereo partly shown) [[7]]	< 10
CC(C)(C)OC(=O)N[C@H](Cc1ccccc1)C(=O)N[C@@H](Cc1ccc2ccccc2c1)C(=O)N[C@H](C=O)CCCNC(=N)N [[3]] (Boc-[dF]-[2Nal]-Arg-aldehyde)	< 3.6
CC(C)(C)OC(=O)N[C@@H](C(=O)N[C@@H](Cc1ccccc1)C(=O)N[C@H](C=O)CCCN=C(N)N)c1ccccc1 [[2]] (Boc-[dPhg]-Phe-Arg-aldehyde)	< 2.6
CC(C)(C)OC(=O)N[C@H](Cc1ccccc1)C(=O)N1CCC[C@H]1C(=O)N[C@H](C=O)CCCNC(=N)N [[23], reference compound]	518
CC(C)(C)OC(=O)N[C@H](Cc1ccc2ccccc2c1)C(=O)N[C@@H](Cc1ccccc1)C(=O)N[C@H](C=O)CCCNC(=N)N [[1]] (Boc-[d2Nal]-Phe-Arg-aldehyde)	< 0.9
CC(C)(C)OC(=O)N[C@H](Cc1ccccc1)C(=O)N1CC[C@H](c2ccccc2)[C@H]1C(=O)N[C@H](C=O)CCCNC(=N)N (relative stereo) [[10]]	< 2.5
N=C(N)NCCC[C@@H](C=O)NC(=O)[C@H](Cc1cccc2ccccc12)NC(=O)[C@@H](Cc1ccccc1)NC(=O)CCC(=O)O [[8]] (Suc-[dF]-[1Nal]-Arg-aldehyde)	< 0.1
